# Tested on: USP30 (Homo sapiens (Human), UniProt Q70CQ3)
# Sequence (Q70CQ3 whole entry): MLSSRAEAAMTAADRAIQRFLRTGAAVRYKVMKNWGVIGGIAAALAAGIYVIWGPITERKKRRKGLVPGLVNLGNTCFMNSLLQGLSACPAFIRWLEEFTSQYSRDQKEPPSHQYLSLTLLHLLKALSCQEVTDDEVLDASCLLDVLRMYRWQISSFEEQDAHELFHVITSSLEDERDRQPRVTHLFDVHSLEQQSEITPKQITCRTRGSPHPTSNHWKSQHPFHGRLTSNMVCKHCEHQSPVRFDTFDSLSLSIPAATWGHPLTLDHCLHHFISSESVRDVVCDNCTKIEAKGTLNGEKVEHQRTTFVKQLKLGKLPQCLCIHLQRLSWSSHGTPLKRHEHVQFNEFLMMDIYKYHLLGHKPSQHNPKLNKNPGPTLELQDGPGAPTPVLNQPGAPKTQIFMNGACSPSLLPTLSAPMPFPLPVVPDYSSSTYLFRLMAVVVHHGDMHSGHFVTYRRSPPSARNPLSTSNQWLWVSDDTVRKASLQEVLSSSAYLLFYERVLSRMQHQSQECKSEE
# Assay procedure: Dundee MALDI-TOF mass spectrometry assay (% DUB activity remaining at 1 μM)
# Type: biochemical
# Settings: % DUB activity remaining at compound concentration of 1 μM; avg; read-out: Dundee % Activity at 1 μM (avg in vitro MS assay)
Experimental readout: activity at 1 µM

CCNS(=O)(=O)c1ccc(NC(=O)C2(NC(=O)c3ccccc3)CCc3ccccc3C2)cc1 (stereo not shown) | > 75%
CC(C)(C)NC(=O)c1ccc(NC(=O)[C@H](Cc2ccccc2)NC(=O)c2ccc(F)cc2)cc1 | > 75%
C[C@@H](NS(=O)(=O)c1ccc(NC(=O)[C@H](Cc2ccccc2)NC(=O)c2ccc(F)cc2)cc1)C(F)(F)F | 0 to 25%
CC(C)(C)NS(=O)(=O)c1ccc(OC[C@H](Cc2ccccc2)NC(=O)c2ccc(F)cc2)cc1 | > 75%
CC(C)(C)NS(=O)(=O)c1ccc(NC(=O)C2(NC(=O)c3ccccc3)CCc3ccccc3C2)cc1 (stereo not shown) | > 75%

For each of the compounds below, state activity at 1 µM.
1. CC(C)(C)NS(=O)(=O)c1ccc(NC(=O)C2(NC(=O)c3ccc(F)cc3)Cc3ccccc3C2)cc1
2. C[C@H](NS(=O)(=O)c1ccc(NC(=O)[C@H](Cc2ccccc2)NC(=O)c2ccc(F)cc2)cc1)C1CC1
3. CCNS(=O)(=O)c1ccc(NC(=O)C2Cc3ccccc3CN2C(=O)c2ccc(F)cc2)cc1 (stereo not shown)

*A*
1. 25 to 50%
2. 0 to 25%
3. > 75%

For each of the compounds below, state activity at 1 µM.
1. CC(C)(C)NS(=O)(=O)c1ccc(N2C(=O)C(NC(=O)c3ccc(F)cc3)Cc3ccccc32)cc1 (stereo not shown)
2. CC(C)(C)NS(=O)(=O)c1ccc(NC(=O)C2(NC(=O)c3ccc(F)cc3)CC2c2ccccc2)cc1 (racemic) [Compound I-82]

*A*
["> 75%", "> 75%"]

* * *

Exercise: state measured IC50 for each of the compounds provided.
# Tested on: recombinant USP30 (amino acids 57-517 of the human sequence) (Homo sapiens (Human))
# Sequence (Q70CQ3 57-517): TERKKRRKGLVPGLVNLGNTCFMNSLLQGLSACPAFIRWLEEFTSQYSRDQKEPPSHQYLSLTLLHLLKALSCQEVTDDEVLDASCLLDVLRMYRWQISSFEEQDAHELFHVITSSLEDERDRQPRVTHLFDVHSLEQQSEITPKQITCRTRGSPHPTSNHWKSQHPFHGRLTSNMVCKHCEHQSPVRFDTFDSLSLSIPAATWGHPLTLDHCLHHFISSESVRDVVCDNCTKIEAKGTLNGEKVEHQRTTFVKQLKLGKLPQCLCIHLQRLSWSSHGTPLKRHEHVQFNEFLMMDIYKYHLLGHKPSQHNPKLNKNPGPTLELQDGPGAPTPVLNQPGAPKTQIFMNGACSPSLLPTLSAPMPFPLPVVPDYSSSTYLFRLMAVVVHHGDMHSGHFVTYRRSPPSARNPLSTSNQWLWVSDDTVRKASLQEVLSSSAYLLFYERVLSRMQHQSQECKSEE
# Assay procedure: In vitro USP30 biochemical assay (Ubiquitin-Rhodamine)
# Settings: USP30 IC50 μM (avg), Ubiquitin-Rhodamine substrate 25 nM, 1.5 nM recombinant USP30
Where a name gives a salt, the structure may show the parent alone.

# annotated cases, reported IC50 shown
O=C(N[C@@H](Cc1ccccc1)C(=O)Nc1ccc(S(=O)(=O)NC23CC(C2)C3)c(Cl)c1)c1ccc(F)cc1 [Compound I-169] | 0.05 to 1 µM
CC(C)(C)NS(=O)(=O)c1ccc(NC(=O)[C@H](Cc2ccccc2)NC(=O)c2cccnc2)cc1 [Compound I-87] | 0.05 to 1 µM
CC(C)(C)OCCNS(=O)(=O)c1ccc(NC(=O)[C@H](Cc2ccccc2)NC(=O)c2ccc(F)cc2)cn1 [Compound I-114] | 0.05 to 1 µM
O=C(N[C@@H](Cc1ccccc1)C(=O)Nc1ccc(S(=O)(=O)NC23CC(C2)C3)cc1)c1cccc(F)c1 [Compound I-95] | 0.05 to 1 µM
CN(C)CCNS(=O)(=O)c1ccc(NC(=O)[C@H](Cc2ccccc2)NC(=O)c2ccc(F)cc2)cc1 [Compound I-133] | 0.05 to 1 µM

For each of the compounds below, state IC50.
1. CN(C)CCNS(=O)(=O)c1ccc(NC(=O)[C@H](Cc2ccccc2)NC(=O)c2ccc(F)cc2)cn1 [Compound I-109, formate]
2. CCNS(=O)(=O)c1ccc(NC(=O)[C@H](Cc2ccccc2)NC(=O)c2ccc(F)cc2)cc1F [Compound I-155]
3. CCNS(=O)(=O)c1ccc(NC(=O)[C@H](Cc2ccccc2)NC(=O)c2ccc(F)cc2)cn1 [Compound I-105]

*A*
1 to 10 µM
0.05 to 1 µM
0.05 to 1 µM

Data provenance: patent US11845724B2
